Cited source for all entries: PubChem BioAssay AID1963838

tested on: 855422-203-R-J1-PDC complex spheroid viability; assay: Anticancer human tumor 855422-203-R-J1-PDC patient-derived bladder carcinoma cell line growth inhibition [POLQ]; details: curve of first compound; second compound 1 µM
Readout Type: IC50

Compound	Readout Type	Result
COc1cccc2c1C(=O)c1c(O)c3c(c(O)c1C2=O)CC(O)(C(=O)CO)CC3OC1CC(N)C(O)C(C)O1 (centres undefined) + COC1C(OC(N)=O)C(O)C(Oc2ccc3c(O)c(NC(=O)c4ccc(O)c(CC=C(C)C)c4)c(=O)oc3c2C)OC1(C)C	IC50	< 0.0316 µM
CC(=O)O[C@H]1C(=O)[C@@]2(C)[C@H]([C@H](OC(=O)c3ccccc3)[C@]3(O)C[C@H](OC(=O)[C@H](O)[C@@H](NC(=O)c4ccccc4)c4ccccc4)C(C)=C1C3(C)C)[C@]1(OC(C)=O)CO[C@@H]1C[C@@H]2O + Nc1ccc(C#CCN(C(=O)Cc2ncc(C(F)(F)F)cc2C(F)(F)F)c2ccc(F)cc2)nn1	IC50	< 0.00949 µM

Could you report IC50 for every entry in the following list?
1. CC(C)n1c(=O)n(C)c2cnc3cc(F)c(-c4ccc(OCCCN5CCCCC5)nc4)cc3c21 + Nc1ccc(C#CCN(C(=O)Cc2ncc(C(F)(F)F)cc2C(F)(F)F)c2ccc(F)cc2)nn1
2. CC(C)n1c(=O)n(C)c2cnc3cc(F)c(-c4ccc(OCCCN5CCCCC5)nc4)cc3c21 + COC1C(OC(N)=O)C(O)C(Oc2ccc3c(O)c(NC(=O)c4ccc(O)c(CC=C(C)C)c4)c(=O)oc3c2C)OC1(C)C

1: > 10 µM; 2: > 10 µM

* * *

tested on: 855422-203-R-J1-PDC complex spheroid viability; experiment: Anticancer human tumor 855422-203-R-J1-PDC cell line growth inhibition [POLQ]; settings: second compound 3.16 µM; first compound 0.316 µM; stronger effect = lower value;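 note: spheroids exposed to compounds for seven days before readout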
Readout Type: viability, T/C (%)
Give bare numbers, in %.

Compound	Readout Type	Quantitative Result
CCc1c2c(nc3ccc(O)cc13)-c1cc3c(c(=O)n1C2)COC(=O)[C@]3(O)CC + Nc1ccc(C#CCN(C(=O)Cc2ncc(C(F)(F)F)cc2C(F)(F)F)c2ccc(F)cc2)nn1	viability, T/C	5.5
CCCS(=O)(=O)Nc1ccc(F)c(C(=O)c2c[nH]c3ncc(-c4ccc(Cl)cc4)cc23)c1F + Cc1cccc(N(C)C(=O)C2C(O)CCN2c2nc(C)cc(C(F)(F)F)c2C#N)c1	viability, T/C	139

# COc1ccc([C@@H](O)c2cc(-c3ncnc4cc(N5CCOCC5)ccc34)c(F)cc2Cl)nn1 + Nc1ccc(C#CCN(C(=O)Cc2ncc(C(F)(F)F)cc2C(F)(F)F)c2ccc(F)cc2)nn1 with 855422-203-R-J1-PDC complex spheroid viability: viability, T/C is 87.5

* * *

Assign viability, T/C to each entry below.
system: 855422-203-R-J1-PDC complex spheroid viability; experiment: Anticancer human tumor 855422-203-R-J1-PDC cell line growth inhibition [POLQ]; conditions: second compound 1 µM; first compound 0.0316 µM; stronger effect = lower value;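 note: spheroids exposed to compounds for seven days before readout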
Answers are plain numbers, in %.

Compound	viability, T/C, %
CC1COCCN1c1cc(C2(S(C)(=N)=O)CC2)nc(-c2ccnc3[nH]ccc23)n1 (configuration not stated) + Cc1cccc(N(C)C(=O)C2C(O)CCN2c2nc(C)cc(C(F)(F)F)c2C#N)c1	110
CCCS(=O)(=O)Nc1ccc(F)c(C(=O)c2c[nH]c3ncc(-c4ccc(Cl)cc4)cc23)c1F + Cc1cccc(N(C)C(=O)C2C(O)CCN2c2nc(C)cc(C(F)(F)F)c2C#N)c1	97

Could you report viability, T/C for every entry in the following list?
1. COc1cc(C2c3cc4c(cc3C(OC3OC5COC(C)OC5C(O)C3O)C3COC(=O)C23)OCO4)cc(OC)c1O (configuration not stated) + Nc1ccc(C#CCN(C(=O)Cc2ncc(C(F)(F)F)cc2C(F)(F)F)c2ccc(F)cc2)nn1
2. CC[C@@]1(O)C(=O)OCc2c1cc1n(c2=O)Cc2cc3c(CN(C)C)c(O)ccc3nc2-1 + COC1C(OC(N)=O)C(O)C(Oc2ccc3c(O)c(NC(=O)c4ccc(O)c(CC=C(C)C)c4)c(=O)oc3c2C)OC1(C)C
3. O=c1[nH]cc(F)c(=O)[nH]1 + Nc1ccc(C#CCN(C(=O)Cc2ncc(C(F)(F)F)cc2C(F)(F)F)c2ccc(F)cc2)nn1
4. C#Cc1c(F)ccc2cc(O)cc(-c3ncc4c(N5CC6CCC(C5)N6)nc(OCC56CCCN5CC(F)C6)nc4c3F)c12 (configuration not stated) + COC1C(OC(N)=O)C(O)C(Oc2ccc3c(O)c(NC(=O)c4ccc(O)c(CC=C(C)C)c4)c(=O)oc3c2C)OC1(C)C
5. CCc1cc2c(N3CCc4c(cc(Cn5ccnc5)cc4-c4cn(C)nc4C(F)(F)F)C3=O)ccnc2c(OC)n1 + Cc1cccc(N(C)C(=O)C2C(O)CCN2c2nc(C)cc(C(F)(F)F)c2C#N)c1
6. CNCc1ccc(-c2[nH]c3cc(F)cc4c3c2CCNC4=O)cc1 + COC1C(OC(N)=O)C(O)C(Oc2ccc3c(O)c(NC(=O)c4ccc(O)c(CC=C(C)C)c4)c(=O)oc3c2C)OC1(C)C
7. CCc1cc2c(N3CCc4c(cc(Cn5ccnc5)cc4-c4cn(C)nc4C(F)(F)F)C3=O)ccnc2c(OC)n1 + Nc1ccc(C#CCN(C(=O)Cc2ncc(C(F)(F)F)cc2C(F)(F)F)c2ccc(F)cc2)nn1
8. C#Cc1c(F)ccc2cc(O)cc(-c3ncc4c(N5CC6CCC(C5)N6)nc(OCC56CCCN5CC(F)C6)nc4c3F)c12 (configuration not stated) + Cc1cccc(N(C)C(=O)C2C(O)CCN2c2nc(C)cc(C(F)(F)F)c2C#N)c1

1: 92.2; 2: 44.7; 3: 95.3; 4: 103; 5: 125; 6: 104; 7: 98.1; 8: 109

Could you report viability, T/C for every entry in the following list?
1. CC1COCCN1c1cc(C2(O)CC3CCC(C2)O3)c2cnn(-c3ccn[nH]3)c2n1 (configuration not stated) + Cc1cccc(N(C)C(=O)C2C(O)CCN2c2nc(C)cc(C(F)(F)F)c2C#N)c1
2. Nc1ccn(C2OC(CO)C(O)C2(F)F)c(=O)n1 (configuration not stated) + COC1C(OC(N)=O)C(O)C(Oc2ccc3c(O)c(NC(=O)c4ccc(O)c(CC=C(C)C)c4)c(=O)oc3c2C)OC1(C)C

95
72.4

* * *

Assign pIC50 to each entry below.
system: 855422-203-R-J1-PDC complex spheroid viability; assay: Anticancer human tumor 855422-203-R-J1-PDC cell line growth inhibition [POLQ]; conditions: curve of first compound; second compound 1 µM;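 note: spheroids exposed to compounds for seven days before readout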
One number for each entry, as −log10 of the molar value.

Record excerpt, results attached:
Compound	Target Under Test	pIC50
CCCS(=O)(=O)Nc1ccc(F)c(C(=O)c2c[nH]c3ncc(-c4ccc(Cl)cc4)cc23)c1F + COC1C(OC(N)=O)C(O)C(Oc2ccc3c(O)c(NC(=O)c4ccc(O)c(CC=C(C)C)c4)c(=O)oc3c2C)OC1(C)C	855422-203-R-J1-PDC complex spheroid viability	5.26
CC1COCCN1c1cc(C2(S(C)(=N)=O)CC2)nc(-c2ccnc3[nH]ccc23)n1 (centres undefined) + Nc1ccc(C#CCN(C(=O)Cc2ncc(C(F)(F)F)cc2C(F)(F)F)c2ccc(F)cc2)nn1	855422-203-R-J1-PDC complex spheroid viability	5.47
CC[C@@]1(O)C(=O)OCc2c1cc1n(c2=O)Cc2cc3c(CN(C)C)c(O)ccc3nc2-1 + Nc1ccc(C#CCN(C(=O)Cc2ncc(C(F)(F)F)cc2C(F)(F)F)c2ccc(F)cc2)nn1	855422-203-R-J1-PDC complex spheroid viability	7.22

Please find the next compound below.
The compound CC1COCCN1c1cc(C2(O)CC3CCC(C2)O3)c2cnn(-c3ccn[nH]3)c2n1 (centres undefined) + Nc1ccc(C#CCN(C(=O)Cc2ncc(C(F)(F)F)cc2C(F)(F)F)c2ccc(F)cc2)nn1 showed pIC50 equal to 6.77

* * *

Assign viability, T/C to each entry below.
test system: 855422-203-R-J1-PDC complex spheroid viability; assay: Anticancer human tumor 855422-203-R-J1-PDC cell line growth inhibition [POLQ]; details: second compound 3.16 µM; first compound 0.1 µM; stronger effect = lower value;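 note: spheroids exposed to compounds for seven days before readout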

Record excerpt, results attached:
Compound	Readout Type	Result
CC(C)n1c(=O)n(C)c2cnc3cc(F)c(-c4ccc(OCCCN5CCCCC5)nc4)cc3c21 + Nc1ccc(C#CCN(C(=O)Cc2ncc(C(F)(F)F)cc2C(F)(F)F)c2ccc(F)cc2)nn1	viability, T/C	148%
CNCc1ccc(-c2[nH]c3cc(F)cc4c3c2CCNC4=O)cc1 + COC1C(OC(N)=O)C(O)C(Oc2ccc3c(O)c(NC(=O)c4ccc(O)c(CC=C(C)C)c4)c(=O)oc3c2C)OC1(C)C	viability, T/C	92%
CC1COCCN1c1cc(C2(S(C)(=N)=O)CC2)nc(-c2ccnc3[nH]ccc23)n1 (stereo unspecified) + COC1C(OC(N)=O)C(O)C(Oc2ccc3c(O)c(NC(=O)c4ccc(O)c(CC=C(C)C)c4)c(=O)oc3c2C)OC1(C)C	viability, T/C	106%
COc1cc2cc(C(=O)CCC(=O)O)sc2cc1OC + Cc1cccc(N(C)C(=O)C2C(O)CCN2c2nc(C)cc(C(F)(F)F)c2C#N)c1	viability, T/C	122%
O=c1[nH]cc(F)c(=O)[nH]1 + Cc1cccc(N(C)C(=O)C2C(O)CCN2c2nc(C)cc(C(F)(F)F)c2C#N)c1	viability, T/C	99.5%

Please find the next compound below.
The compound C=CCn1c(=O)c2cnc(Nc3ccc(N4CCN(C)CC4)cc3)nc2n1-c1cccc(C(C)(C)O)n1 + COC1C(OC(N)=O)C(O)C(Oc2ccc3c(O)c(NC(=O)c4ccc(O)c(CC=C(C)C)c4)c(=O)oc3c2C)OC1(C)C showed viability, T/C equal to 102%
